Origin of measurements: the antibiotic and cytotoxicity screens of Wong et al. (2023)

tested on: HepG2; assay: cytotoxicity call (relative viability < 0.9); conditions: 10 µM
Out of some 39,000 compounds screened, about 3,300 (8.5%) were called active. The entries come from a sample that favours actives as a whole.
Possible outcomes: 1 (yes) = active, 0 (no) = inactive

- C[C@@H]1CN([C@H](C)CO)C(=O)c2cc(NC(=O)Nc3ccc(C(F)(F)F)cc3)ccc2O[C@H]1CN(C)S(C)(=O)=O: 0 (no)
- C[C@H]1CN([C@@H](C)CO)C(=O)c2cc(NC(=O)Nc3ccc(C(F)(F)F)cc3)ccc2O[C@H]1CN(C)S(C)(=O)=O: 0 (no)
- CC(=O)Nc1ccc(CC(=O)O)cc1: 0 (no)
- C[C@H](CO)N1C[C@H](C)[C@@H](CN(C)Cc2ccncc2)Oc2c(NC(=O)c3cnccn3)cccc2C1=O: 0 (no)
- CCN(CC)CCOC(=O)C(Cc1cccc2ccccc12)CC1CCCO1.O=C(O)C(=O)O (stereo not given): 1 (yes)
- C[C@@H]1CN([C@H](C)CO)C(=O)c2cc(NC(=O)Nc3ccc(C(F)(F)F)cc3)ccc2O[C@@H]1CN(C)S(=O)(=O)c1ccc(F)cc1: 1 (yes)
- C[C@@H]1CN([C@@H](C)CO)C(=O)c2cc(NC(=O)CCN3CCOCC3)ccc2O[C@H]1CN(C)S(C)(=O)=O: 0 (no)
- C[C@H](CO)N1C[C@H](C)[C@H](CN(C)S(=O)(=O)c2ccc(F)cc2)Oc2ccc(NC(=O)Nc3ccc(C(F)(F)F)cc3)cc2C1=O: 0 (no)
- C[C@@H]1CN([C@H](C)CO)C(=O)c2cccc(NC(=O)c3cnccn3)c2O[C@@H]1CN(C)S(=O)(=O)c1ccc(Cl)cc1: 0 (no)
- C[C@@H]1CCCCO[C@@H](CN(C)S(=O)(=O)c2cn(C)cn2)[C@H](C)CN([C@H](C)CO)C(=O)c2cc(NS(C)(=O)=O)ccc2O1: 0 (no)

###

test system: HepG2; assay: cytotoxicity call (relative viability < 0.9); conditions: 10 µM
The whole screen tested about 39,000 compounds, of which about 3,300 (8.5%) were called active. For the sample, actives were picked, then their nearest neighbours and some compounds at random.
Possible outcomes: active, inactive

• Cc1cc(C(=O)Nc2cccc3c2O[C@@H](CN(C)C(=O)NC2CCCCC2)[C@H](C)CN([C@H](C)CO)C3=O)n(C)n1 = inactive
• COCC(=O)N1C[C@H](C)[C@H](OC)CN(C)C(=O)c2ccc(NC(=O)Nc3ccccc3)cc2OC[C@H]1C = inactive
• CCOC(=O)C[n+]1ccccc1C = inactive
• COc1ccc2c3c(n(c2c1)C)[C@H](CO)N(C[C@]13CCN(CC1)C(=O)CN1CCOCC1)C(=O)Nc1ccc(cc1)F = inactive
• C[C@H](CO)N1C[C@H](C)[C@H](CN(C)S(=O)(=O)c2cccs2)Oc2ncc(-c3ccc(F)cc3)cc2C1=O = inactive
• Cc1cc(C)nc(NS(=O)(=O)c2ccc(NC(=O)c3cccn(OCc4ccc(F)cc4)c3=O)cc2)n1 = inactive
• O=C(C[C@H]1C[C@H]2c3cc(NC(=O)NC4CCCC4)ccc3O[C@H]2[C@H](CO)O1)NCc1ccc2c(c1)OCO2 = inactive
• Cc1ccc(S[C@]2(C(=O)O)CC(=O)N(C3Cc4ccccc4C3)[C@@H]2c2ccc(CO)cc2I)cc1 = inactive
• C[C@H](CO)N1C[C@H](C)[C@H](CN(C)Cc2ccc(Oc3ccccc3)cc2)Oc2ccc(NC(=O)Nc3ccccc3)cc2C1=O = inactive
• C[C@@H]1CN([C@@H](C)CO)C(=O)c2cc(NC(=O)Nc3ccccc3)ccc2O[C@@H]1CN(C)Cc1ccc(Oc2ccccc2)cc1 = active
• C[C@H](CO)N1C[C@H](C)[C@@H](CN(C)Cc2ccc(Oc3ccccc3)cc2)Oc2ccc(NC(=O)Nc3ccccc3)cc2C1=O = active
• CC[C@H](C)[C@H]1O[C@]2(CC[C@@H]1C)C[C@@H]1C[C@@H](C/C=C(\C)[C@@H](O[C@H]3C[C@H](OC)[C@@H](O[C@H]4C[C@H](OC)[C@@H](O)[C@H](C)O4)[C@H](C)O3)[C@@H](C)/C=C/C=C3\CO[C@@H]4[C@H](O)C(C)=C[C@@H](C(=O)O1)[C@]34O)O2 = active
• COc1ccc(S(=O)(=O)Nc2ccc3c(c2)C(=O)N([C@H](C)CO)C[C@H](C)[C@@H](CN(C)C(=O)Nc2c(C)noc2C)OCCCC[C@@H](C)O3)cc1 = inactive
• C[C@@H]1CCCCO[C@@H](CN(C)S(=O)(=O)c2cccs2)[C@@H](C)CN([C@@H](C)CO)C(=O)c2cc(NC(=O)Cc3ccccc3)ccc2O1 = inactive
• CCOc1ccc(-n2c([C@@H](C)N(Cc3cccnc3)C(=O)Cc3ccc(F)c(C(F)(F)F)c3)nc3ncccc3c2=O)cc1 = inactive
• CN[C@@H]1[C@@H](O)[C@@H](O[C@@H]2[C@@H](O)[C@H](O[C@H]3O[C@H]([C@@H](C)NC)CC[C@H]3N)[C@@H](N)C[C@H]2N)OC[C@]1(C)O = inactive
• Cc1ccc(S(=O)(=O)N(C)C[C@H]2Oc3ccc(NC(=O)c4ccncc4)cc3C(=O)N([C@H](C)CO)C[C@@H]2C)cc1 = inactive
• COc1ccc(S(=O)(=O)Nc2ccc3c(c2)C(=O)N([C@H](C)CO)C[C@H](C)[C@@H](CN(C)S(=O)(=O)c2cccs2)O3)cc1 = inactive
• CC(=O)N1CC2(CCN(CC(=O)N3CCOCC3)CC2)C[C@@H]1C(=O)O = inactive
• CNC[C@@H]1CC[C@@H](N)[C@@H](O[C@H]2[C@H](O)[C@@H](O[C@H]3OC[C@](C)(O)[C@H](NC)[C@H]3O)[C@H](N)C[C@@H]2N)O1 = inactive
• COc1ccc(S(=O)(=O)Nc2ccc3c(c2)C(=O)N([C@@H](C)CO)C[C@H](C)[C@@H](CN(C)S(=O)(=O)c2cn(C)cn2)O3)cc1 = inactive
• CCC(C)C1OC2(CCC1C)CC1CC(CC=C(C)C(OC3CC(OC)C(OC4CC(OC)C(O)C(C)O4)C(C)O3)C(C)C=CC=C3COC4C(O)C(C)=CC(C(=O)O1)C34O)O2 (stereo unspecified) = active
• CNC(C)C1CCC(N)C(OC2C(N)CC(N)C(OC3OCC(C)(O)C(NC)C3O)C2O)O1.O=S(=O)(O)O (stereo unspecified) = active
• C[C@H]1CN([C@@H](C)CO)C(=O)c2cc(NC(=O)Nc3ccccc3)ccc2O[C@@H]1CN(C)Cc1ccc(Oc2ccccc2)cc1 = active
• COCC(=O)Nc1ccc2c(c1)OC[C@@H](C)N(C(=O)c1ccccc1F)C[C@@H](C)[C@H](OC)CN(C)C2=O = inactive
• C[C@H]1CN([C@@H](C)CO)C(=O)c2cc(NC(=O)Nc3ccccc3)ccc2O[C@H]1CN(C)Cc1ccc(Oc2ccccc2)cc1 = inactive

###

tested on: HepG2; experiment: cytotoxicity call (relative viability < 0.9); details: 10 µM
Out of some 39,000 compounds screened, about 3,300 (8.5%) were called active. Shown is part of a subset that was picked to be rich in actives.
Labels: active, inactive

* CC(C)NC(=O)Nc1ccc2c(c1)CC(=O)N([C@H](C)CO)C[C@@H](C)[C@H](CN(C)Cc1ccc(-c3ccccc3)cc1)O2 | inactive
* CC(C)NC(=O)Nc1ccc2c(c1)CC(=O)N([C@@H](C)CO)C[C@@H](C)[C@@H](CN(C)Cc1ccc(-c3ccccc3)cc1)O2 | inactive
* CC(C)NC(=O)Nc1ccc2c(c1)CC(=O)N([C@@H](C)CO)C[C@H](C)[C@@H](CN(C)Cc1ccc(-c3ccccc3)cc1)O2 | active

###

tested on: HepG2; test: cytotoxicity call (relative viability < 0.9); details: 10 µM
The whole screen tested about 39,000 compounds, of which about 3,300 (8.5%) were called active. Many of the other results were omitted from the sample, so actives are more common in it than they were.
Classes used: 1.0 (active), 0.0 (inactive)

• Nc1nc(/C(=N/O)C(=O)N[C@@H]2C(=O)N3C(C(=O)O)=C(/C=C4\CCN([C@@H]5CCNC5)C4=O)CS[C@H]23)ns1 = 0.0
• CC(C)CC#Cc1ccc2c(c1)O[C@@H](CN(C)C(=O)Cc1ccncc1)[C@H](C)CN([C@H](C)CO)S2(=O)=O = 0.0
• C[C@H](CO)N1C[C@H](C)[C@@H](CN(C)Cc2ccc3c(c2)OCO3)OCCCC[C@H](C)Oc2ccc(NC(=O)CCC(F)(F)F)cc2C1=O = 0.0
• OC[C@H]1O[C@H](n2cnc3cncnc32)[C@@H](O)[C@@H]1O = 1.0
• O=C(CCCCCC(=O)N/N=C/[C@H](O)[C@@H](O)[C@@H](O)[C@H](O)CO)NO = 0.0
• Nc1nc(=O)c2ncn([C@@H]3O[C@H](CO)[C@@H](O)[C@H]3O)c2[nH]1 = 0.0
• C[C@@H]1CN([C@@H](C)CO)C(=O)Cc2cc(NC(=O)c3ccncc3)ccc2O[C@@H]1CN(C)S(=O)(=O)c1cn(C)cn1 = 0.0
